- Target Desc: Reverse transcriptase (Human immunodeficiency virus 1, UniProt Q9WKE8)
- Protocol Text: Inhibition of CXCR4 tropic HIV1 3B reverse transcriptase infected in human TZM-bl cells
Measure Name: IC50 (nM)
Please give a number only; it is taken to be in nM.

Chemical Structure	Uom	Observed Measurement
Cc1cc(C)c(Nc2nc(N)nc(Nc3ccc(C#N)nc3)n2)c(C)c1	nM	0.131

Request: What does the record list as IC50 for Cc1cc(C)c(Nc2nc(Cl)nc(Nc3ccc(C#N)nc3)n2)c(C)c1 ?
Response: 0.124

* * *

- Protocol Text: Inhibition of HIV1 LAI reverse transcriptase infected in human MT4 cells assessed as protection against virus-induced cytopathic effect by MTT assay
# IC50 annotations

Field: example entries. Status: answers known.
Chemical Structure	IC50
C=Cc1cnc(Nc2ccc(C#N)cc2)nc1Nc1c(C)cc(C)cc1C	2.5 nM
Cc1cc(C#N)cc(C)c1Nc1nc(Nc2ccc(C#N)cc2)ncc1C#N	0.5 nM
Cc1cc(Br)cc(C)c1Sc1ccnc(Nc2ccc(C#N)cc2)n1	5.7 nM

In the following, a different compound is considered.
Request: What does the record list as IC50 for N#Cc1ccc(Nc2cc(Cc3c(Cl)cccc3Cl)nc(N)n2)cc1 ?
Response: 10 nM

* * *

- Protocol Text: Inhibition of HIV1 RES056 reverse transcriptase K103N/Y181C double mutant infected in human MT4 cells assessed as protection against virus-induced cytopathic effect
Measure Name: EC50

Request: What does the record list as EC50 for Cc1cc(C(C#N)c2ccccc2F)nc(Nc2ccc(C#N)cc2)n1 (stereo unspecified) ?
Response: > 0.217 µM

* * *

- Protocol Text: Inhibition of wild-type HIV1 3B reverse transcriptase infected in human MT4 cells harboring GFP by scanning microscopic analysis
Measure Name: EC50 (nM)
Please give a number only; it is taken to be in nM.

Chemical Structure	Observed Measurement
CN(C)CCNC(=O)c1cnc(Nc2ccc(C#N)cc2)nc1Nc1ccc(/C=C/C#N)cc1	0.794

Request: What does the record list as EC50 for N#C/C=C/c1ccc(Nc2nc(Nc3ccc(C#N)cc3)ncc2C(=O)NCCCN2CCCC2)cc1 ?
Response: 0.794

Request: What does the record list as EC50 for N#C/C=C/c1ccc(Nc2cc(NCCc3ccc(S(N)(=O)=O)cc3)nc(Nc3ccc(C#N)cc3)n2)cc1 ?
Response: 16

Request: What does the record list as EC50 for N#C/C=C/c1ccc(Nc2cc(NCCCN3CCOCC3)nc(Nc3ccc(C#N)cc3)n2)cc1 ?
Response: 20

* * *

- Protocol Text: Inhibition of HIV1 reverse transcriptase Y181C mutant infected in human MT2 cells assessed as protection against virus-induced cytopathic effect by MTT assay
# EC50 annotations
Please give a number only; it is taken to be in nM.

Chemical Structure	Measure Name	Observed Measurement
Cc1cc(C)c(Nc2cc(OCCCN3CCOCC3)nc(Nc3ccc(C#N)cc3)n2)c(C)c1	EC50	480
N#C/C=C/c1cc(F)c(Nc2nc(NCCCN3CCOCC3)nc(Nc3ccc(C#N)cc3)n2)c(F)c1	EC50	75

In the following, a different compound is considered.
Request: What does the record list as EC50 for Cc1cc(/C=C/C#N)cc(C)c1Nc1nc(Nc2ccc(C#N)cc2)nc(OCCCN2CCOCC2)n1 ?
Response: 12
